We begin with a simple list: items and their reported AC50.
biological target: UniProtKB P04062; experiment: Glucocerebrosidase activity assay with blue substrate (4MU-Glc); type: biochemical; settings: Table 1; 7.5 nM enzyme, 1.5 mM 4MU-Glc, 30 min at 37° C., titration 24 nM to 50 μM

Some compounds with known AC50 results, for comparison:
Which AC50 is reported for this compound? `Cc1cccc(OCCN(C)c2nc(-c3cccnc3)nc3ccccc23)c1`
3.55 µM

Would you kindly repeat that for `Cn1ncc2c(N3CC[C@@H](Oc4ccccc4)C3)nc(-c3cccnc3)nc21` ?
5.62 µM

Same lookup for `c1ccc(O[C@H]2CCCN(c3nc(-c4cccnc4)nc4ccccc34)C2)cc1` , please.
3.98 µM

Consider next the compound `CN(CCOc1ccccc1)c1nc(-c2cccnc2)nc2cc(F)ccc12` in the same way.
2.82 µM

Moving on to `CN(CCOc1ccccc1)c1nc(-c2cccnc2)nc2c1SCC2`
12.6 µM

Also need `COC(=O)c1cccc(OCCN(C)c2nc(-c3cccnc3)nc3ccccc23)c1` , thanks.
5.01 µM

Also `CN(CCOc1ccccc1)c1nc(-c2ccc(N)nc2)nc2ccccc12` , if possible.
3.1 µM

Follow-up item: `CN(CCOc1ccccc1)c1nc(-c2cccnc2)nn2cccc12`
3.16 µM

Next, consider the following compound.
Please look up its AC50: `COC(=O)Cc1cccc(OCCN(C)c2nc(-c3cccnc3)nc3c2cnn3C)c1`
7.94 µM

====

Target: UniProt:P04062
Experiment: Glucocerebrosidase activity assay with blue substrate (4MU-Glc)
Format: biochemical
Conditions: Table 1; 7.5 nM enzyme, 1.5 mM 4MU-Glc, 30 min at 37° C., titration 24 nM to 50 μM
Description: Example 2—Glucocerebrosidase Activity Assay with Blue Substrate The compounds in DMSO solution 0.5 μL/well were transferred to a black 96-well plate (the final titration was 24 nM to 50 μM, 12 concentrations, 2× dilution). 33.5 μL enzyme solution (7.5 nM final concentration) was transferred to the wells. […] The fluorescence was then measured in the Biotek Synergy H1 multi-mode plate reader with Ex=365 nm and Em=440 nm. […]
quantity: log10(AC50) (log10 of the value in µM)
Recall that a logarithmic scale is used here: each number is log10 of AC50 in µM.

Here's what some known entries look like.
Give its log10(AC50) value. Item: `O=C(CCCCCCCN(CCOc1ccccc1)c1nc(-c2cccnc2)nc2ccccc12)ON1C(=O)CCC1=O`
0.10

// repeat for `CN(Cc1ccc2ncccc2c1)c1nc(-c2cccnc2)nc2c1cnn2C` and report
1.15

Now this one: `c1ccc(OCCOc2nc(-c3cccnc3)nc3ccccc23)cc1`
0.50

Same lookup for `Cc1cc(C)cc(OCCN(C)c2nc(-c3cccnc3)nc3ccccc23)c1` , please.
0.60

Moving on to the next compound: `CN(CCOc1ccccc1)c1cc(-c2ccccc2)nc(-c2cccnc2)n1`
0.00

Another: `Cc1csc2c(N(C)CCOc3ccccc3)nc(-c3cccnc3)nc12`
0.40

Input CN(CC1CCc2ccccc2O1)c1nc(-c2cccnc2)nc2c1cnn2C (stereo not drawn)
0.80

Next compound: `Cc1ccccc1OCCN(C)c1nc(-c2cccnc2)nc2ccccc12`
0.50

Another compound to look at: CN(CC1CCc2ccccc2C1)c1nc(-c2cccnc2)nc2ccccc12 (stereo not drawn)
0.30

Next compound up: `CN(CCOc1ccccc1)c1nc(-c2cccnc2)nc2c1COC2`
0.75

Others:
For `CN(CCOc1ccccc1)c1nc(-c2ccc(O)nc2)nc2ccccc12` , what is its reported log10(AC50)?
0.91

How about this compound: `Cc1nn(Cc2ccccc2)c(C)c1N(C)c1nc(-c2cccnc2)nc2ccccc12`
1.00

And `CC(C)n1ncc2c(N(C)CCOc3ccccc3)nc(-c3cccnc3)nc21` ?
1.45

Further, for `CN(CCOc1ccccc1)c1nc(-c2cncc(F)c2)nc2ncccc12` ?
0.85

Try this compound next: `CN(C[C@H]1COc2ccccc2O1)c1nc(-c2cccnc2)nc2c1cnn2C`
0.14

What do you have for `CN(CCOc1ccc2c(c1)CCCC2)c1nc(-c2cccnc2)nc2c1cnn2C` ?
0.50

Moving on to the next compound: `CN(CCOc1ccccc1)c1nc(-c2cccnc2)nc2c(C(F)(F)F)cccc12`
0.26

Similarly, `CN(CCOc1ccccc1)c1nc(-c2cccnc2)nc2c(F)cccc12` ?
0.45

====

Molecular target: UniProt:P04062
Experiment: Glucocerebrosidase activity assay with blue substrate (4MU-Glc)
Type: biochemical
Details: Table 1; 7.5 nM enzyme, 1.5 mM 4MU-Glc, 30 min at 37° C.
Procedure: Example 2—Glucocerebrosidase Activity Assay with Blue Substrate The compounds in DMSO solution 0.5 μL/well were transferred to a black 96-well plate (the final titration was 24 nM to 50 μM, 12 concentrations, 2× dilution). 33.5 μL enzyme solution (7.5 nM final concentration) was transferred to the wells. […] The fluorescence was then measured in the Biotek Synergy H1 multi-mode plate reader with Ex=365 nm and Em=440 nm. […]
Assign classes using reported Emax values and the ranges bucket 1 = under 200%, bucket 2 = from 200% up to 500%, bucket 3 = 500% and over, please.

Class label required: `CN(CCOc1ccc(C(=O)ON2C(=O)CCC2=O)cc1)c1nc(-c2cccnc2)nc2ccccc12`
bucket 2

Please do the same for `CN(CCOc1ccccc1)c1cc(-c2cccnc2)nc(-c2cccnc2)n1` as well.
bucket 2

Ok, now `CN(CCOc1ccc(C(=O)O)cc1)c1nc(-c2cccnc2)nc2ccccc12`
bucket 2

// same read-out, input: `CCCN(CCOc1ccccc1)c1nc(-c2cccnc2)nc2ccccc12`
bucket 1

Note, next up: `Cc1noc(C)c1-c1nc(N(C)CCOc2ccccc2)c2ccccc2n1`
bucket 1

====

Target: glucocerebrosidase (Homo sapiens, UniProt P04062)
Sequence (P04062 40-536): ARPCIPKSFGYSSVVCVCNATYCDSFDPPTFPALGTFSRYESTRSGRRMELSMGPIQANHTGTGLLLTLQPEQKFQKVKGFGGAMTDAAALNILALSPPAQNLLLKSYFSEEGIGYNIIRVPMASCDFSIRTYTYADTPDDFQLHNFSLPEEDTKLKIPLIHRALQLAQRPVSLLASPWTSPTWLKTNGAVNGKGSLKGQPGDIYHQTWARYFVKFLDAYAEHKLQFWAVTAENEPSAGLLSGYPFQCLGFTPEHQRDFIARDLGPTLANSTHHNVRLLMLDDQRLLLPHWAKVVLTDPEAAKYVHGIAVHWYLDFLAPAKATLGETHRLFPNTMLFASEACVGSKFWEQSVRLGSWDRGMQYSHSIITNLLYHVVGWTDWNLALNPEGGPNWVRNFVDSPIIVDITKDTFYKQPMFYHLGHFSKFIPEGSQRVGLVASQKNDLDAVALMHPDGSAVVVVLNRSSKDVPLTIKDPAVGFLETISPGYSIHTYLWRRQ
Test: Glucocerebrosidase activity assay with blue substrate (4MU-Glc)
Format: biochemical
Conditions: Table 1; 7.5 nM enzyme, 1.5 mM 4MU-Glc, 30 min at 37° C.
Emax overview
Supply the numeric figure in %, leaving out any unit text.

Below, 10 compounds whose answers are already recorded.
Request the reported Emax associated with `CN(CCOc1ccccc1)c1nc(-c2cccnc2)nc2c1cnn2C`
425

Next entry: `CN(CCOc1ccccc1)c1nc(-c2ccc(N)nc2)nc2ccccc12`
170

Now the compound CN(c1nc(-c2cccnc2)nc2c1cnn2C)C1CCCN(c2ccccc2)C1 (stereo not shown)
142

Field entry: `CN(CCOC(C)(C)C)c1nc(-c2cccnc2)nc2ccccc12`
180

Ok, now `CCn1ncc2c(N(C)CCOc3ccccc3)nc(-c3cccnc3)nc21`
208

Next record, please: `CN(CCOc1ccccc1)c1nc(-c2cccnc2)nc2[nH]ccc12`
461

Continue with `CN(CCOc1ccccc1)c1nc(-c2cccnc2)nc2ccc(F)cc12`
450

Next compound: `CCN(CCOc1ccccc1)c1nc(-c2cccnc2)nc2ccccc12`
430

Another compound to check: `CN(CCOc1ccccc1)c1nc(-c2ccc(F)nc2)nc2ccccc12`
220

And what about the compound `CN(CCOc1ccccc1)c1nc(-c2cncc(F)c2)nc2ccccc12` ?
180

Next:
Request the reported Emax associated with `CN(Cc1ccc2ncccc2c1)c1nc(-c2cccnc2)nc2c1cnn2C`
475

Then this compound: `Cc1nn(Cc2ccccc2)c(C)c1N(C)c1nc(-c2cccnc2)nc2ccccc12`
194

Next compound: `c1ccc(O[C@H]2CCCN(c3nc(-c4cccnc4)nc4ccccc34)C2)cc1`
220

Now the same for `CN(CCN1CCc2ccccc2C1)c1nc(-c2cccnc2)nc2c1cnn2C`
197

Likewise for `Cn1ncc2c(NCCOC3CCCCC3)nc(-c3cccnc3)nc21` ?
322

Follow-up item: `CN(CCN(C)c1nc(-c2cccnc2)nc2ccccc12)c1ccccc1`
250

Similarly, `CN(CCOc1ccccc1)c1nc(-c2cccnc2F)nc2ccccc12` ?
160

Now consider `CN(CCc1c[nH]c2ccccc12)c1nc(-c2cccnc2)nc2ccccc12` and answer again.
250

Entry `CN(C[C@@H]1COc2ccccc2O1)c1nc(-c2cccnc2)nc2ccccc12` please
220
